Origin of the recorded values: the supplement of paper PMC10065799

- experimental-system: FGFR3 (UniProt P22607)
- Sequence (P22607 whole entry, looked up): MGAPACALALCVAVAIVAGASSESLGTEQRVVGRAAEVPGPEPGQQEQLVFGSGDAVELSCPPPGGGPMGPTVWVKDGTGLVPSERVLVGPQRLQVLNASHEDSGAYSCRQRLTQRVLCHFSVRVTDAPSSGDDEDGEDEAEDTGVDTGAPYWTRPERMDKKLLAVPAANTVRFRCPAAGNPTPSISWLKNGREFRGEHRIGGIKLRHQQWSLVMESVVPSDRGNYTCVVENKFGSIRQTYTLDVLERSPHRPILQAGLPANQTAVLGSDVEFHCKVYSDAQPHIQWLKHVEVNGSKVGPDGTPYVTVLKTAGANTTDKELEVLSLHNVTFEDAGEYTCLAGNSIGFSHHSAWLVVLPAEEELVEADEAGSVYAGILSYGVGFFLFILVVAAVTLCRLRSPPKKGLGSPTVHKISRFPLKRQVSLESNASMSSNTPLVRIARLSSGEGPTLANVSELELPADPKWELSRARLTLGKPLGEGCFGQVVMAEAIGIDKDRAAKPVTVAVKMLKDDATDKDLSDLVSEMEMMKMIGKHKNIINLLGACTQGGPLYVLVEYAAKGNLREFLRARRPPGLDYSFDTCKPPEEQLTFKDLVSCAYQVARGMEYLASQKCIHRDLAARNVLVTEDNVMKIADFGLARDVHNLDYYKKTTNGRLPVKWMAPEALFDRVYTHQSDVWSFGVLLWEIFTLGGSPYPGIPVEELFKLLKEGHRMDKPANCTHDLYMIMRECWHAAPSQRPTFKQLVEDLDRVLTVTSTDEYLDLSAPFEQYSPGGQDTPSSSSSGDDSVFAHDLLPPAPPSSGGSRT
- assay-name: phosphorylation enrichment, bacterial display (enrichment ratio); higher = better substrate or ligand; peptides without Tyr show the background;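 further: 11-residue human phosphosite peptides and single-mutation variants displayed on the E. coli surface, counted by deep sequencing, each peptide's frequency after selection divided by its frequency in the unselected input library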;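 further: frequency after pTyr selection over input frequency; kinase dosed for 20-30% of maximal phosphorylation in three min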
parameter-measured: phosphorylation enrichment

{"sequence-string": "LREKVYASLEA [RXRA_Y397]", "endpoint-value": 0.944}
{"sequence-string": "EYLQKYKGFKI [SYNE1_Y6953]", "endpoint-value": 0.377}
{"sequence-string": "KAIMTYVPSFF [ACTN4_Y260_S262P_YF]", "endpoint-value": 0.542}
{"sequence-string": "METKGYHSLPE [NR3C2_Y6]", "endpoint-value": 0.563}
{"sequence-string": "DVFLKYLNFAT [PDE6B_Y212]", "endpoint-value": 0.826}
{"sequence-string": "EKLQKYFRQNP [EHHADH_Y682_YF]", "endpoint-value": 0.472}
{"sequence-string": "PTDGVYVMPTV [MYO7A_Y1668_S1666G]", "endpoint-value": 2.52}
